Numbers sourced from paper PMC11057469.

Recorded ΔTm for the following compounds
- measured.on: Bovine serum albumin (BSA) (Bos taurus)
- Sequence (P02769 25-607): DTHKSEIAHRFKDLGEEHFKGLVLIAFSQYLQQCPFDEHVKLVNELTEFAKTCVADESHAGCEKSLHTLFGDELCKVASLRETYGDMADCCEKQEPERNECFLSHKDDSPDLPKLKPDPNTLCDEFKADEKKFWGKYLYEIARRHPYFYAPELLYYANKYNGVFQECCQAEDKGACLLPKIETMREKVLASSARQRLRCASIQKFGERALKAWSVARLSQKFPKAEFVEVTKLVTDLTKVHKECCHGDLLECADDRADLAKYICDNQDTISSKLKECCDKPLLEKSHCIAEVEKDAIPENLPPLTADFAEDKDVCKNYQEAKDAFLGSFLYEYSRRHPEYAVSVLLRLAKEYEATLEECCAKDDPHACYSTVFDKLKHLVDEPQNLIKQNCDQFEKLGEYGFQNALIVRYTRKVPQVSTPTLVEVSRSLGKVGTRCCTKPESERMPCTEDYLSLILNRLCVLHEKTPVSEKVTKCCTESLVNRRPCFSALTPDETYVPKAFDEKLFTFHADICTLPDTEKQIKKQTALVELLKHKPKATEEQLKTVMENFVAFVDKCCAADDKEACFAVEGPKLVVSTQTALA
- assay.remarks: in vitro
- test.conditions: bovine, pH 7.4
assay.endpoint: ΔTm (°C)

1. O=S(=O)(O)C(F)(F)C(F)(F)C(F)(F)C(F)(F)C(F)(F)C(F)(F)C(F)(F)C(F)(F)F: 15.3
2. O=S(=O)(O)CCC(F)(F)C(F)(F)C(F)(F)C(F)(F)C(F)(F)C(F)(F)F: 17.2

----------
- measured.on: human serum albumin (HSA) (Homo sapiens)
- Sequence (P02768 25-609): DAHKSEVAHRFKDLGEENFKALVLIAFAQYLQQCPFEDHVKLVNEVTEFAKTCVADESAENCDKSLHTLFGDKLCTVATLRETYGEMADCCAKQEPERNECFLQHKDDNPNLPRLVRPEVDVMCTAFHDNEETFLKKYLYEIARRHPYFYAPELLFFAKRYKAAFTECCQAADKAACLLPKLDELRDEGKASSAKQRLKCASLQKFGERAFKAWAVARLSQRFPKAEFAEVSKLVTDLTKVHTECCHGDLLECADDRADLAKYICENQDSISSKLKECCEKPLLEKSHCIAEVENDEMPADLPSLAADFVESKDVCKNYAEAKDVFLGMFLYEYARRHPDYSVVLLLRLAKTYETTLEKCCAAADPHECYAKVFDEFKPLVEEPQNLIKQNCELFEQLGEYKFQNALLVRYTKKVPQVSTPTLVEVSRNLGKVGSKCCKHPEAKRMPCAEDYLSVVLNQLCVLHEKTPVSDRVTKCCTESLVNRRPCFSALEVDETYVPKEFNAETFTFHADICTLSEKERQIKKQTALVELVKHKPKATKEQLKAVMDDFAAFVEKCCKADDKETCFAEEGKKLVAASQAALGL
- assay.remarks: in vitro
- test.conditions: human, pH 7.4
This section presents compounds with their documented ΔTm values.
assay.endpoint: ΔTm (°C)

1) O=S(=O)(O)C(F)(F)C(F)(F)C(F)(F)C(F)(F)C(F)(F)C(F)(F)C(F)(F)C(F)(F)F: 15.9
2) O=S(=O)(O)CCC(F)(F)C(F)(F)C(F)(F)C(F)(F)C(F)(F)C(F)(F)F: 3.53

----------
- measured.on: human serum albumin (HSA) (Homo sapiens)
- assay.remarks: in vitro
- test.conditions: human, pH 7.4
- Description: Serum albumin stocks (1 mM) were prepared by reconstituting lyophilized stocks in HBS, with expected protein concentrations confirmed using the colorimetric Bio-Rad DC Protein Assay (Hercules, California). A minimum of 2 independent plates were run for each protein-ligand combination, with 3 replicates per sample on each plate. […]
assay.endpoint: Kd (µM)

1) O=S(=O)(O)C(F)(F)C(F)(F)C(F)(F)C(F)(F)C(F)(F)C(F)(F)C(F)(F)C(F)(F)F: 620
